Values from ChEMBL document CHEMBL1201862

Test system: SK-OV-3
assay.protocol: NCI tumour cell line growth inhibition, 48 h
Active and inactive are the calls of the source. Rule as the data show it: active = GI50 up to about 1.1 µM and inactive = higher.
measurement.label: GI50

[
  {
    "compound": "N/C(=N/c1ccc(O)cc1)S(=O)O",
    "system.tested": "SK-OV-3",
    "GI50": "41.5 µM (inactive)"
  },
  {
    "compound": "CCP(=S)(CC)CCl",
    "system.tested": "SK-OV-3",
    "GI50": "> 100 µM (inactive)"
  },
  {
    "compound": "CCOC(=O)C1(C(=O)OCC)C=C(c2ccccc2)N(C2OC(COC(C)=O)C(OC(C)=O)C(OC(C)=O)C2OC(C)=O)C1=S (stereo unspecified)",
    "system.tested": "SK-OV-3",
    "GI50": "70.3 µM (inactive)"
  },
  {
    "compound": "Cc1ccc(/C=C2\\CN(C)CC3=C2OC(N)=C(C#N)C3c2ccc(C)cc2)cc1 (stereo unspecified)",
    "system.tested": "SK-OV-3",
    "GI50": "9.84 µM (inactive)"
  },
  {
    "compound": "CCCCCCCCCCSC(=O)NC",
    "system.tested": "SK-OV-3",
    "GI50": "> 100 µM (inactive)"
  }
]

// switching to the query compound
q: Quote GI50 reported for Cc1ccc(C2=C(c3ccccc3)C(Br)(c3ccccc3)C(c3ccccc3)=C2c2ccc(C)cc2)cc1 please.
a: > 100 µM (inactive)
